Where do the numbers come from? From paper PMC10728955.

# Test System: Human VEGFR-2 (Homo sapiens)
# Procedure Text: In vitro VEGFR-2 inhibition, VEGFR-2 ELISA kit
# Type: biochemical
# Experimental Context: VEGFR-2 IC50, as printed in the abstract
Measurement Type: IC50 (nM)
Answer format: numeric, nM implied, no suffix.

Inquiry: Which IC50 reading was recorded for the molecule `COc1ccc(-n2nc(C(C)=O)s/c2=N\N=C(/C)c2ccc(NC(C)=O)cc2)cc1` ?
Reply text: 103

----------
# Test System: Human VEGFR-2 (Homo sapiens, UniProt P35968)
# Sequence (P35968 20-1356): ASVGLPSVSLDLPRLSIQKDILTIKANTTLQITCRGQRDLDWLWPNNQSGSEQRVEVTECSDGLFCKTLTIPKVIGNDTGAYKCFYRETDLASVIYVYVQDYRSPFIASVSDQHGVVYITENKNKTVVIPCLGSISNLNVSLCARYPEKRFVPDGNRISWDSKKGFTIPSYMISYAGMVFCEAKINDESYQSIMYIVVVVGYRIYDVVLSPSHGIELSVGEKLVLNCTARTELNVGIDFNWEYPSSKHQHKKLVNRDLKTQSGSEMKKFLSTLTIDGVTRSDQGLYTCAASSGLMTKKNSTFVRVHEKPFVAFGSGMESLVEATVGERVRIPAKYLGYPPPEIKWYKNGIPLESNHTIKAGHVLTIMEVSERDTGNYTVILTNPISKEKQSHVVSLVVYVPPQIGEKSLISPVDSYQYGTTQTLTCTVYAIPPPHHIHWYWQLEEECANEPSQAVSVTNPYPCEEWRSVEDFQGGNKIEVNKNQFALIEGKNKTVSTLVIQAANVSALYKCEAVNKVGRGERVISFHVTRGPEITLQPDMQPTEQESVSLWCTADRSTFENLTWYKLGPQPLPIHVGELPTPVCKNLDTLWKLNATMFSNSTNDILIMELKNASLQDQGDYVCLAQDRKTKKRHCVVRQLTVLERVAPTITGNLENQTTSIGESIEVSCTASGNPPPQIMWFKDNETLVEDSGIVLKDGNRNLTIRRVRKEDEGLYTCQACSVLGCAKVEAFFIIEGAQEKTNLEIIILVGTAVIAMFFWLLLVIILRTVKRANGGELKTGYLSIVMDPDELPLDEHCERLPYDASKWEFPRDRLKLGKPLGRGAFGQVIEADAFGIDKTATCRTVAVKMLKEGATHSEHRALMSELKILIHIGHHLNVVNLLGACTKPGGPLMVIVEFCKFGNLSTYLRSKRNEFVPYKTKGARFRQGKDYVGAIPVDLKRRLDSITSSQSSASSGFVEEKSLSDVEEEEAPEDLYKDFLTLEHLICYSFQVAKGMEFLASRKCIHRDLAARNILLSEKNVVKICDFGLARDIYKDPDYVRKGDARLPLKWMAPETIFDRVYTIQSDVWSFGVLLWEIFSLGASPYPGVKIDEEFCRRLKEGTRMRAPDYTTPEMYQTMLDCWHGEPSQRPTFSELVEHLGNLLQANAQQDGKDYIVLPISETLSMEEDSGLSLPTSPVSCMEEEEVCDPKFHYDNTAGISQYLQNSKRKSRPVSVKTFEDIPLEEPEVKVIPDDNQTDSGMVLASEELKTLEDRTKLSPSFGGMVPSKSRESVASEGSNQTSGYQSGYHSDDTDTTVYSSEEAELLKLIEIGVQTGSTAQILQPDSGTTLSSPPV
# Procedure Text: In vitro VEGFR-2 inhibition, VEGFR-2 ELISA kit
# Assay type: biochemical
# Experimental Context: VEGFR-2 IC50, as printed in section 3.2.3
Measurement Type: pIC50
In simple prose, pIC50 is minus the logarithm base ten of a concentration in moles per litre.

Inquiry: Which pIC50 reading was recorded for the compound `COc1ccc(-n2nc(C(C)=O)s/c2=N\N=C(/C)c2ccc(NC(C)=O)cc2)cc1` ?
Reply text: 6.61
